Data origin, for the record: patent US20220125891A1

- systemName: ΔCTD_Reg1 (human Regnase-1 amino acids 1 to 546, FLAG tag on the N-terminal side, BirA recognition sequence … (human))
- Sequence (Q5D1E8 1-546, stated change not applied): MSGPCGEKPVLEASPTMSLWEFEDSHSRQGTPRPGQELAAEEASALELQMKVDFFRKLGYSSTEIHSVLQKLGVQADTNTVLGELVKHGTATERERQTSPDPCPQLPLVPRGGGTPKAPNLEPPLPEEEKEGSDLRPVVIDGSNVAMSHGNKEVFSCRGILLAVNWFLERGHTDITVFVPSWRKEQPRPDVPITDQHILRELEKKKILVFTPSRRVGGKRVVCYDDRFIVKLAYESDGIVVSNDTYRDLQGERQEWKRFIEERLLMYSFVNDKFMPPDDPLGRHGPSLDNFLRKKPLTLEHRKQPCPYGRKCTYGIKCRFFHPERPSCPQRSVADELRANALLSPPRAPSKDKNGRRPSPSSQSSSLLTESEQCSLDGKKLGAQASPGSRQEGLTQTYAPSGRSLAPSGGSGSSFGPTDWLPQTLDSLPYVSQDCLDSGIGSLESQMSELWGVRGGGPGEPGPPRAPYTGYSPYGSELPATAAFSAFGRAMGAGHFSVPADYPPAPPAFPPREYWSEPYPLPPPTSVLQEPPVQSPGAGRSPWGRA
- assayComment: cell-based or functional assay
Positions of bridges follow the written chain, without caps; N, C: chain ends. Non-standard residues stand in square brackets, D forms with d. No end group written: not given here. NMeA = CN[C@@H](C)C(=O)O
Give IC50, phosphorylation by IKKβ for every item shown.

QUERY: Any idea what its IC50, phosphorylation by IKKβ is? The binder is [NMeA]TSWYKVNWGQD (lactam N-12) [PP1]
RESULT: > 62.1 µM

QUERY: Any idea what its IC50, phosphorylation by IKKβ is? The binder is [NMeA]DIWFDYWDYD (lactam N-11) [PP18]
RESULT: 0.2 µM

QUERY: Any idea what its IC50, phosphorylation by IKKβ is? The binder is [NMeA]KFAQFRWIYPD (lactam N-12) [PP11]
RESULT: > 62.1 µM
